Ref: patent US4481203A

Test system: AH-130
Experiment: Anti-cancer effect (T/C) on subcutaneously transplanted AH-130, oral administration (Table 2)
Assay type: in vivo, male Donryu rats
Settings: Rattus norvegicus, po, 240 h; read-out: Anti-cancer effect (T/C)
Attribute: response vs control in vivo at 500 µmol/kg
Report as a plain number; the unit % is understood.

Solved cases (7 shown):
INSERT INTO results (compound, target, value_unit, numeric_result) VALUES
  ('CCCC(=O)n1cc(F)c(=O)[nH]c1=O [Compound 10, 1-(n-Butyryl)-5-fluorouracil]', 'AH-130', '%', 38),
  ('CCOCn1cc(F)c(=O)[nH]c1=O [Compound 5, 1-Ethoxymethyl-5-fluorouracil]', 'AH-130', '%', 68),
  ('O=c1[nH]c(=O)n(C2CCCO2)cc1F (centres unmarked) [Compound 2, 1-(2-Tetrahydrofuryl)-5-fluorouracil, reference compound]', 'AH-130', '%', 65),
  ('O=c1[nH]c(=O)n(S(=O)(=O)c2ccccc2)cc1F [Compound 8, 1-Benzenesulfonyl-5-fluorouracil]', 'AH-130', '%', 48),
  ('O=c1[nH]cc(F)c(=O)n1C1CCCO1 (centres unmarked) [Compound 7, 3-(2-Tetrahydrofuryl)-5-fluorouracil]', 'AH-130', '%', 20),
  ('CCCCn1cc(F)c(=O)[nH]c1=O [Compound 11, 1-(n-Butyl)-5-fluorouracil]', 'AH-130', '%', 77),
  ('Fc1cnc(OCc2ccccc2)nc1OCc1ccccc1 [Compound 12, 2,4-Dibenzyl-5-fluorouracil]', 'AH-130', '%', 55);

Next compound, response vs control in vivo at 500 µmol/kg to be filled in.
Exercise: Return response vs control in vivo at 500 µmol/kg measured with AH-130 given this compound: O=c1c(F)cn(C2CCCO2)c(=O)n1C1CCCO1 (centres unmarked) [Compound 3]
Solution: 24

====

System: sarcoma 180
Experiment: Therapeutic effect on sarcoma 180 transplanted in mice (Table 5)
Type: in vivo, male mice of ICR strain
Settings: oral, uracil (b)/(a) mol ratio 0, as amount of 5-fluorouracil (a), 14400 min
Method: (5) The anti-cancer compositions of this invention are tested in mice by the following methods to determine acute toxicity, therapeutic effect and theapeutic index. Tissues of sarcoma 180, 2×10^6, are subcutaneously transplanted in the back of male mice of ICR strain (6 mice in each group). […] Twenty-four hours after the transplantation and during the following seven consecutive days the suspension is orally given to the animal once every day.
Attribute: ED50

Solved cases (3 shown):
INSERT INTO measurements (molecule, result) VALUES
  ('O=c1c(F)cn(C2CCCO2)c(=O)n1C1CCCO1 (stereo not shown)', '118 mg/kg'),
  ('CCCCCCNC(=O)n1cc(F)c(=O)[nH]c1=O', '60 mg/kg'),
  ('CCCC(=O)n1cc(F)c(=O)[nH]c1=O', '111 mg/kg');

Next molecule, ED50 to be filled in.
Exercise: What does the data say about its ED50? Entry: CCOC(=O)n1cc(F)c(=O)[nH]c1=O
Solution: 101 mg/kg
